# assay.target: T1, Src-phosphorylated C3G-AAPA (human, UniProt Q13905-1 4-1077, P283A | P284A | L286 | P287 | P289A | P453A | P454A | L456A | P457A | K459A | …, phosphotyrosines from phosphorylation in vitro with Src (sites not given))
# T1 construct: human C3G isoform a, residues 4-1077; only P3 kept, P1, P2 and P4 mutated to Ala; also called pC3G-AAPA; source: E. coli BL21 (DE3), purified; phosphorylated in vitro with the recombinant kinase domain of Src, then SEC; not shown: His, N-terminal, cleaved; Halo, N-terminal, cleaved
# T1 sequence (looked up): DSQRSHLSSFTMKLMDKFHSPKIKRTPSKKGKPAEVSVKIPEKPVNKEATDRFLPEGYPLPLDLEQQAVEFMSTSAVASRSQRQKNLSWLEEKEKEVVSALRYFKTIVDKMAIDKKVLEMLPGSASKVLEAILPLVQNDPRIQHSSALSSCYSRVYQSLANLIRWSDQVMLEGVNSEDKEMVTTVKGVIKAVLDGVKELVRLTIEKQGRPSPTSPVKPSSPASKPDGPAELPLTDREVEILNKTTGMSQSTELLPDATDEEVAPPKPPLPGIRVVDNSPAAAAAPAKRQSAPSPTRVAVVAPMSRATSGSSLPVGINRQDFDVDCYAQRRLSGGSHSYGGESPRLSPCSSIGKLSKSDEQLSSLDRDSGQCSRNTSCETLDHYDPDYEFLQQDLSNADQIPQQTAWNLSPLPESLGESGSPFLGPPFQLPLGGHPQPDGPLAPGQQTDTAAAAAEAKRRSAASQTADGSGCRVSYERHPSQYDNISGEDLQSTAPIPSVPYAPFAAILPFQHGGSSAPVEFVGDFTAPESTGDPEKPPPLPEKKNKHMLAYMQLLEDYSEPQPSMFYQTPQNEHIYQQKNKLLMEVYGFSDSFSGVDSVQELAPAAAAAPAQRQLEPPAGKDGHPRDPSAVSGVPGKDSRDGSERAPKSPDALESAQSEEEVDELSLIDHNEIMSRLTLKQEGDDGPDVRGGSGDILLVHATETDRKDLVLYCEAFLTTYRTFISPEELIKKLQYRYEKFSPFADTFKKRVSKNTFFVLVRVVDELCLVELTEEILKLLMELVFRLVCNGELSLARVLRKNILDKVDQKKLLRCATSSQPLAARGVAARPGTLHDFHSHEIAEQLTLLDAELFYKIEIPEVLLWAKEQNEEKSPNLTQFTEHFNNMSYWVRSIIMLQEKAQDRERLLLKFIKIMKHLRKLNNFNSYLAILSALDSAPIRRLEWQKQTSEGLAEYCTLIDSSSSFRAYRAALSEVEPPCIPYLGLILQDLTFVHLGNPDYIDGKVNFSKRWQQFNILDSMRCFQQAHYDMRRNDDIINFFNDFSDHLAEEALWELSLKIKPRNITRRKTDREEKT
# assay.comment: ITC; single-PRM mutant of C3G in the cell titrated with CrkL or CrkL-SH3N, 25 °C, 300 mM NaCl, pH 7.5; SEDPHAT, 1:1 heteroassociation model; N is the competent fraction of C3G
# assay.setup: both partners purified
pKd: −log10 of the molar value.
property.measured: pKd

binder	observed.measurement
CrkL-SH3N (domain or fragment, human, UniProt P46109 125-182, looked up, human CrkL, SH3N domain, residues 125-182, in pETEV15b; source: E. coli BL21 (DE3), purified (IMAC, TEV digestion, SEC); not shown: His, N-terminal, cleaved) LEYVRTLYDFPGNDAEDLPFKKGEILVIIEKPEEQWWSARNKDGRVGMIPVPYVEKLV	5.68
